Reference source: the NIST ThermoML archive (doi:10.1016/j.jct.2016.07.005)

Task for the reader: assign each of the following compounds its reported viscosity.
experiment: xn = mol fraction of the nth substance listed; conditions: 313.15 K; 100 kPa; Liquid; Concentric cylinders viscometry; x1 = 0.3
Numeric only. Scale: mPa·s

viscosity lookup needed for CN1CCC[C@H]1c1cccnc1 [(-)-3-(N-methylpyrrolidino)pyridine] + CC(O)CO , thanks. 14.33

viscosity lookup needed for CN1CCC[C@H]1c1cccnc1 [(-)-3-(N-methylpyrrolidino)pyridine] + OCCCO , thanks. 19.74

viscosity lookup needed for CN1CCC[C@H]1c1cccnc1 [(-)-3-(N-methylpyrrolidino)pyridine] + CCCCO , thanks. 2.103

viscosity lookup needed for CN1CCC[C@H]1c1cccnc1 [(-)-3-(N-methylpyrrolidino)pyridine] + CCC(C)O , thanks. 2.094
